# test_target: T1, hen egg lysozyme (Gallus gallus (hen), UniProt P00698)
# T1 construct: hen egg lysozyme (HEL), lysozyme C of the chicken; No supplier is named for HEL; also called HEL; antigen
# T1 sequence (P00698 19-147): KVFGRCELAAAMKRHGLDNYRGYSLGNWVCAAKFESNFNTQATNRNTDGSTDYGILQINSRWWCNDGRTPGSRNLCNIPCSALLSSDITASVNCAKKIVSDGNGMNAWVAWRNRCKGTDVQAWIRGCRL
# assay: other fluorescence titration; de-quenching dose response: 10 ng mini Q-body in 250 μL PBST in a quartz cell; antigen added stepwise (0, 1 nM to 10 μM) at 5 min intervals; EC50 by 4-parameter logistic fit
# experimental_setup: both partners purified
endpoint: EC50

Worked examples follow.
binder	EC50
C3 mini Q-body labeled with TAMRA-C0 (VHH, as the VH of m1; Same chain as m1 with the dye on the Cys-tag; not shown: His-tag, C-terminal, kept) VHH: EVQLLESGGGLVQPGGSLRLSCAASGFRDSDEDMGWVRQAPGKGLEWVSSIYGESGSTYYADSVKGRFTISRDNSKNTLYLQMNSLRAEDTAVYYCASYNYYYNVFDYWGQGTLVTVSS	39 nM
C3 mini Q-body labeled with TAMRA-C5 (VHH, as the VH of m1; Same chain as m1 with the dye on the Cys-tag; also called TAMRA-C5-labeled C3 mini Q-body; TAMRA-labeled C3WT; not shown: His-tag, C-terminal, kept) VHH: EVQLLESGGGLVQPGGSLRLSCAASGFRDSDEDMGWVRQAPGKGLEWVSSIYGESGSTYYADSVKGRFTISRDNSKNTLYLQMNSLRAEDTAVYYCASYNYYYNVFDYWGQGTLVTVSS	263 nM
C3 mini Q-body labeled with ATTO520 (VHH, as the VH of m1; Same chain as m1 with the dye on the Cys-tag; also called ATTO520-C2; not shown: His-tag, C-terminal, kept) VHH: EVQLLESGGGLVQPGGSLRLSCAASGFRDSDEDMGWVRQAPGKGLEWVSSIYGESGSTYYADSVKGRFTISRDNSKNTLYLQMNSLRAEDTAVYYCASYNYYYNVFDYWGQGTLVTVSS	276 nM

Moving on to the next binder.
For C3 mini Q-body labeled with rhodamine 6G (R6G-C5) (VHH, as the VH of m1; Same chain as m1 with the dye on the Cys-tag; also called R6G-C5 Q-body; Rhodamine 6G-labeled mini Q-body; not shown: His-tag, C-terminal, kept) VHH: EVQLLESGGGLVQPGGSLRLSCAASGFRDSDEDMGWVRQAPGKGLEWVSSIYGESGSTYYADSVKGRFTISRDNSKNTLYLQMNSLRAEDTAVYYCASYNYYYNVFDYWGQGTLVTVSS , what is its reported EC50? 397 nM
